Entry source: paper PMC5363699

System: HepaRG cells
Assay: cells
Assay type: cell-based
Conditions: Homo sapiens, HepaRG, 336 h, read-out: EC50 (viability)
testReadout: EC50

Find the recorded EC50 belonging to CN(C)CCCN1c2ccccc2Sc2ccc(Cl)cc21 [Chlorpromazine, chlorpromazine] and report it.
34.1 µM

Param item: CC(=O)Nc1ccc(O)cc1 [APAP, acetaminophen]
1310 µM

Param item: CCOC(=O)CN[C@@H](C(=O)N1CC[C@H]1C(=O)NCc1ccc(/C(N)=N\O)cc1)C1CCCCC1 [Ximelagatran, ximelagatran]
> 400 µM

Param item: Cc1c(C)c2c(c(C)c1O)CCC(C)(COc1ccc(CC3SC(=O)NC3=O)cc1)O2 (stereo not shown) [Troglitazone, troglitazone]
34.6 µM

---

I'd appreciate it if you could supply EC50 values for the items below.
System: hiPS-Hep cells
Assay: Viability (cellular ATP, CellTiter-Glo) of hiPS-Hep cells after single or repeated exposure
Assay type: cell-based
Conditions: Homo sapiens, 48 h, read-out: EC50 (viability)
# output: bare number, implied unit µM

Find the recorded EC50 belonging to Cc1c(C)c2c(c(C)c1O)CCC(C)(COc1ccc(CC3SC(=O)NC3=O)cc1)O2 (stereo not shown) and report it.
46

Param item: "CN(C)CCCN1c2ccccc2Sc2ccc(Cl)cc21"
38.6

---

System: hiPS-Hep cells
Experiment: Viability (cellular ATP, CellTiter-Glo) of hiPS-Hep cells after single or repeated exposure
Format: cell-based
Conditions: Homo sapiens, 336 h, read-out: EC50 (viability)
testReadout: EC50 (µM)
# output: bare number, implied unit µM

Find the recorded EC50 belonging to "CN(C)CCCN1c2ccccc2Sc2ccc(Cl)cc21" and report it.
24.4

Param item: "CC(=O)Nc1ccc(O)cc1"
9440

Param item: Cc1c(C)c2c(c(C)c1O)CCC(C)(COc1ccc(CC3SC(=O)NC3=O)cc1)O2 (stereo not shown)
18.7

---

Test system: hiPS-Hep cells
Test: Viability (cellular ATP, CellTiter-Glo) of hiPS-Hep cells after single or repeated exposure
Format: cell-based
Settings: Homo sapiens, 336 h, read-out: 14-day IC50
testReadout: IC50 (µM)
# output: bare number, implied unit µM

Find the recorded IC50 belonging to Cc1c(C)c2c(c(C)c1O)CCC(C)(COc1ccc(CC3SC(=O)NC3=O)cc1)O2 (stereo not shown) and report it.
18.7

---

System: HepaRG cells
Test: cells
Format: cell-based
Settings: Homo sapiens, HepaRG, 336 h, read-out: 14-day IC50
testReadout: pIC50
// pIC50 is dimensionless: -log10 of concentration (M)

Find the recorded pIC50 belonging to Cc1c(C)c2c(c(C)c1O)CCC(C)(COc1ccc(CC3SC(=O)NC3=O)cc1)O2 (stereo not shown) and report it.
4.46

---

Tested on: hiPS-Hep cells
Assay: Viability (cellular ATP, CellTiter-Glo) of hiPS-Hep cells after single or repeated exposure
Assay type: cell-based
Details: Homo sapiens, 168 h, read-out: EC50 (viability)
I'd appreciate it if you could supply EC50 values for the items below.
# output: bare number, implied unit µM

Find the recorded EC50 belonging to CN(C)CCCN1c2ccccc2Sc2ccc(Cl)cc21 [Chlorpromazine, chlorpromazine] and report it.
23.7

Param item: Cc1c(C)c2c(c(C)c1O)CCC(C)(COc1ccc(CC3SC(=O)NC3=O)cc1)O2 (stereo not shown) [Troglitazone, troglitazone]
33.9

---

Test system: PHH spheroids
Experiment: Viability (cellular ATP, CellTiter-Glo) of 3D PHH spheroids after single or repeated exposure
Format: cell-based, human
Details: Homo sapiens, 336 h, read-out: EC50 (viability)
testReadout: pEC50
// pEC50 is dimensionless: -log10 of concentration (M)

Record "CCOC(=O)CN[C@@H](C(=O)N1CC[C@H]1C(=O)NCc1ccc(/C(N)=N\O)cc1)C1CCCCC1" : what is its pEC50 with PHH spheroids?
3.78

Param item: "CN(C)CCCN1c2ccccc2Sc2ccc(Cl)cc21"
5.34

Param item: Cc1c(C)c2c(c(C)c1O)CCC(C)(COc1ccc(CC3SC(=O)NC3=O)cc1)O2 (stereo not shown)
5.82

Param item: "CC(=O)Nc1ccc(O)cc1"
3.19
